assay: Apparent Permeability from basolateral to apical side of MDCK2 cells over expressing MDR1; type: ADME, cell-based, Canis lupus familiaris; conditions: dog, MDCK-MDR1; read-out: permeability
ASSAY_METRIC: Papp B→A (×10⁻⁶ cm/s)
Report the figure in ×10⁻⁶ cm/s without appending any unit label.

Problem: For C[C@@H]1CN(C(=O)[C@@H]2CN(C(C)(C)C)C[C@H]2c2ccc(F)cc2F)C[C@H](C)[C@@]1(O)c1ccc(F)cc1.Cl , what is its reported Papp B→A?
Solution: 22

Problem: For C[C@@H]1CN(C(=O)[C@@H]2CN(C(C)(C)C)C[C@H]2c2ccc(F)cc2F)C[C@H](C)[C@@]1(O)c1ccccc1.Cl , what is its reported Papp B→A?
Solution: 18

====

experiment: Oral bioavailability in rat at 1 mg/kg; type: ADME, organism-based; conditions: in vivo
ASSAY_METRIC: bioavailability (%)
Report the figure in % without appending any unit label.

Problem: For C[C@@H]1CN(C(=O)[C@@H]2CN(C(C)(C)C)C[C@H]2c2ccc(F)cc2F)C[C@H](C)[C@@]1(O)c1ccccc1.Cl , what is its reported bioavailability?
Solution: 20

====

Kindly state Emax for each of the entries shown.
biological target: Melanocortin receptor 5 (Homo sapiens); assay: Agonist activity at human recombinant MC5 receptor expressed in HEK293 cells assessed as cAMP accumulation by beta lactamase reporter gene assay relative to alpha melanocyte-stimulating hormone; assay type: functional, cell-based
Sequence (P33032 whole entry): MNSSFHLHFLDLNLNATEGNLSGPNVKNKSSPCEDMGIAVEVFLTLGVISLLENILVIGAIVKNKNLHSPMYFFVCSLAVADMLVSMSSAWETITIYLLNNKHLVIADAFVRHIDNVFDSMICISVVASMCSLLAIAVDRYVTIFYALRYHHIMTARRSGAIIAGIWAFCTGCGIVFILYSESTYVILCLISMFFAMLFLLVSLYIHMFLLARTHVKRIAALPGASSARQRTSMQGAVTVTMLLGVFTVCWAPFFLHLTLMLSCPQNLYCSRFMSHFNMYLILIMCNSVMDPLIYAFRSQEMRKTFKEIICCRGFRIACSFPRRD
Report the figure in % without appending any unit label.

Problem: Item: C[C@@H]1CN(C(=O)[C@H]2CN(c3ccccn3)C[C@@H]2c2ccc(F)cc2F)C[C@H](C)[C@@]1(O)c1ccccc1 Test system: Melanocortin receptor 5 (Homo sapiens) Read-out: Emax Value: ?
Solution: 29

Problem: Item: CCN1C[C@@H](C(=O)N2C[C@@H](C)[C@](O)(c3cccc(F)c3)[C@@H](C)C2)[C@H](c2ccc(F)cc2F)C1 Test system: Melanocortin receptor 5 (Homo sapiens) Read-out: Emax Value: ?
Solution: 92

Problem: Item: CC(C)N1C[C@@H](C(=O)N2C[C@@H](C)[C@](O)(c3ccccc3)[C@@H](C)C2)[C@H](c2ccc(F)cc2F)C1 Test system: Melanocortin receptor 5 (Homo sapiens) Read-out: Emax Value: ?
Solution: 103

Problem: Item: C[C@@H]1CN(C(=O)[C@@H]2CN(C(C)(C)C)C[C@H]2c2ccc(F)cc2F)C[C@H](C)[C@@]1(O)c1ccccc1.Cl Test system: Melanocortin receptor 5 (Homo sapiens) Read-out: Emax Value: ?
Solution: 100

Problem: Item: C[C@@H]1CN(C(=O)[C@@H]2CN(C)C[C@H]2c2ccc(F)cc2F)C[C@H](C)[C@@]1(O)c1ccc(F)cc1 Test system: Melanocortin receptor 5 (Homo sapiens) Read-out: Emax Value: ?
Solution: 100

Problem: Item: C[C@@H]1CN(C(=O)[C@@H]2CN(C(C)(C)C)C[C@H]2c2ccc(F)cc2F)C[C@H](C)[C@@]1(O)c1ccc(F)cc1.Cl Test system: Melanocortin receptor 5 (Homo sapiens) Read-out: Emax Value: ?
Solution: 116

Problem: Item: C[C@@H]1CN(C(=O)[C@@H]2CN(C(C)(C)C)C[C@H]2c2ccc(F)cc2F)C[C@H](C)[C@@]1(O)c1ccccn1 Test system: Melanocortin receptor 5 (Homo sapiens) Read-out: Emax Value: ?
Solution: 100

Problem: Item: C[C@@H]1CN(C(=O)[C@@H]2CN(C(C)(C)C)C[C@H]2c2ccc(F)cc2F)C[C@H](C)[C@@]1(O)c1ccc(F)cc1F Test system: Melanocortin receptor 5 (Homo sapiens) Read-out: Emax Value: ?
Solution: 84

Problem: Item: C[C@@H]1CN(C(=O)[C@@H]2CN(C(C)(C)C)C[C@H]2c2ccc(F)cc2F)C[C@H](C)[C@@]1(O)c1cccc(F)c1 Test system: Melanocortin receptor 5 (Homo sapiens) Read-out: Emax Value: ?
Solution: 74

Problem: Item: CCCC[C@H](NC(C)=O)C(=O)N[C@H]1CC(=O)NCCCC[C@@H](C(N)=O)NC(=O)[C@H](Cc2c[nH]c3ccccc23)NC(=O)[C@H](CCCNC(=N)N)NC(=O)C(Cc2ccccc2)NC(=O)[C@H](CC2=NC=NC2)NC1=O (single isomer, unassigned) Test system: Melanocortin receptor 5 (Homo sapiens) Read-out: Emax Value: ?
Solution: 61

Problem: Item: C[C@@H]1CN(C(=O)[C@@H]2CN(C(C)(C)C)C[C@H]2c2ccc(F)cc2F)C[C@H](C)[C@@]1(O)c1ccc(Cl)cc1 Test system: Melanocortin receptor 5 (Homo sapiens) Read-out: Emax Value: ?
Solution: 107

Problem: Item: CCCCN1C[C@H](C(=O)N2C[C@@H](C)[C@](O)(c3ccccc3)[C@@H](C)C2)[C@@H](c2ccc(F)cc2F)C1 Test system: Melanocortin receptor 5 (Homo sapiens) Read-out: Emax Value: ?
Solution: 72
